All values here come from patent US20260193344A1.

target.under.test: T1, human ACTH 1-39 (human, not fully specified; N-terminal biotin in the ELISA and HTRF binding assays (p-1487, p-1488); 125I on Tyr23 in Example 9 (p-1542); unlabelled in SPR. Letters unchanged.)
T1 peptide: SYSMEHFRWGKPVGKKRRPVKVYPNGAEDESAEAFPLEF
method: cell-based or functional assay
observation.type: IC50, ACTH-induced cAMP reporter, MC1R cells (nM)
The reply should contain only the number, in nM.

Output measured IC50, ACTH-induced cAMP reporter, MC1R cells for this item: Ab5 (antibody, V domains shown) VH: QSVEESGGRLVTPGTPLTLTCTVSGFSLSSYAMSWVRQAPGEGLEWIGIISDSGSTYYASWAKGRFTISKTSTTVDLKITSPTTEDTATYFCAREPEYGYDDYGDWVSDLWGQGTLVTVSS VL: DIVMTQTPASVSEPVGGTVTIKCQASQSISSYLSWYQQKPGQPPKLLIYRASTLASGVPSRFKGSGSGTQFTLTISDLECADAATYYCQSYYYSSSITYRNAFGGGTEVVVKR
1.96

Output measured IC50, ACTH-induced cAMP reporter, MC1R cells for this item: Ab11 (antibody, V domains shown) VH: QSLEESGGRLVTPGTSLTLTCTASGFSLSAYDILWVRQAPGKGLESIGMMYDDGDTYYATWAKGRFIISRTSTTMDLKIISPTTEDTATYFCVKGVSNIWGQGTLVTVSS VL: DIVMTQIPASVEAAVGGTVTIKCQASQSIDSSLAWYQQKPGQPPKLLIYSASTLASGVPSRFKGSGSGTEFTLTIGDLECADAATYYCQSYDGSSSSYYGIGFGGGTEVVVKR
1.49

Output measured IC50, ACTH-induced cAMP reporter, MC1R cells for this item: Ab7 (antibody, V domains shown, Full-length rabbit/human chimeric antibody, HEK-293) VH: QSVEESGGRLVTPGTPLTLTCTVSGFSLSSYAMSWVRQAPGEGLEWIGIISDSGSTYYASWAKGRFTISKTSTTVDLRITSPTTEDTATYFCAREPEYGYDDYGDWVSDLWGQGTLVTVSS VL: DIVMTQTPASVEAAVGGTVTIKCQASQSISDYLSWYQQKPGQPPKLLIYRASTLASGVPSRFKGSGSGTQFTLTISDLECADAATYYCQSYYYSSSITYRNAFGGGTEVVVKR
1.29

Output measured IC50, ACTH-induced cAMP reporter, MC1R cells for this item: Ab10 (antibody, V domains shown) VH: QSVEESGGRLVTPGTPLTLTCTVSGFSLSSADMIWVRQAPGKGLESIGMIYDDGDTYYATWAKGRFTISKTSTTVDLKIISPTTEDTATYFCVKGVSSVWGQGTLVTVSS VL: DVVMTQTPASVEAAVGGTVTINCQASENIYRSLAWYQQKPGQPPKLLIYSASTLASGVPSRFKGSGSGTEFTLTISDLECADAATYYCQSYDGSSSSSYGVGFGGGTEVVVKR
2.14

Output measured IC50, ACTH-induced cAMP reporter, MC1R cells for this item: Ab1 (antibody, V domains shown, Full-length rabbit/human chimeric antibody, HEK-293) VH: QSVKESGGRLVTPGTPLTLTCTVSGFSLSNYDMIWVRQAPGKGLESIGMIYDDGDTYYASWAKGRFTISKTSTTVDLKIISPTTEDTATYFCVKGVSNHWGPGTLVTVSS VL: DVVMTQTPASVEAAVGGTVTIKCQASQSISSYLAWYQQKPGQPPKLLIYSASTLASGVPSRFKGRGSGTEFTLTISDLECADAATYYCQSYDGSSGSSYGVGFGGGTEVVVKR
2.38
